Data credit: patent US20250281462A1

assay: Phase 1 single ascending dose (SAD) trial, plasma pharmacokinetics (Part 1); conditions: male, human, in vivo, po, 90 mg, T1/2, human plasma; Regimen F: 90 mg TQS-168 SDD oral suspension, fed (high fat breakfast), single dose; geometric mean
parameter.measured: half-life

Identify measured half-life corresponding to CC(C)(C)c1ccc(-c2nc3ccccc3[nH]2)cc1
3.52 h

---

Collected half-life values appear next to each entry.
experiment: Plasma concentrations of TQS-168 and TQS-621 after single oral dose 50 mg/kg in mice, three formulations; assay type: in vivo; settings: male, C57BL/6, mouse, plasma, po, 50 mg/kg, mice plasma, TQS-168 50 mg/kg p.o., Group 1 (suspension, 0.5% methylcellulose in PBS), mean
Give me the value, and tack the unit on after it.

CC(C)(C)c1ccc(-c2nc3ccccc3[nH]2)cc1 [TQS-168, 2-(4-tert-butylphenyl)-1H-benzimidazole]: 4.3 h

Query half-life for CC(C)(C)c1ccc(-c2nc3cc(O)ccc3[nH]2)cc1 [TQS-621]
28.3 h

---

assay: clinical; conditions: male, human, in vivo, 120 mg, AUC(0-tau)
parameter.measured: AUC (ng·h/mL)
Numeric answer only, unit ng·h/mL assumed.

Please indicate AUC recorded for CC(C)(C)c1ccc(-c2nc3cc(O)ccc3[nH]2)cc1 [TQS-621]
2270

---

test: Plasma concentrations of TQS-168 and TQS-621 after single oral dose 50 mg/kg in mice, three formulations; type: in vivo; conditions: male, C57BL/6, mouse, plasma, po, 50 mg/kg, mice plasma, TQS-168 50 mg/kg p.o., Group 3 (suspension, Labrafil/Masine/Miglyol/water), mean; read-out: Cmax
Catalogue of compounds with associated Cmax
Dear colleague, please send the value followed by its unit.

CC(C)(C)c1ccc(-c2nc3ccccc3[nH]2)cc1 [TQS-168, 2-(4-tert-butylphenyl)-1H-benzimidazole]: 611 ng/mL

We next turn to a different compound, shown below.
Provide Cmax value for the following compound: CC(C)(C)c1ccc(-c2nc3cc(O)ccc3[nH]2)cc1 [TQS-621]
92 ng/mL

---

Test: Plasma concentrations of TQS-168 and TQS-621 after single oral dose 50 mg/kg in mice, three formulations
Type: in vivo
Conditions: male, C57BL/6, mouse, plasma, po, 50 mg/kg, mice, 50 mg/kg p.o., Group 1 (suspension, methylcellulose in PBS), 2 hr, mean; read-out: Calculated Concentration in plasma
Protocol: In a second experiment, mice were administered 50 mg/kg TQS-168 by oral gavage. For Group 1, TQS-168 was prepared at a concentration of 5.0 mg/mL in a suspension with […] in PBS. For Group 2, TQS-168 was prepared at a concentration of 5.0 mg/mL as a solution in 10 polyethylene glycol (PEG) 400|30 Kleptose (Roquete)|60% water. […] Plasma concentrations of TQS-168 and TQS-621 were measured overtime.
parameter.measured: concentration at 2 h (ng/mL)
Give just the number in ng/mL; leave the unit off.

State its concentration at 2 h for this compound: CC(C)(C)c1ccc(-c2nc3ccccc3[nH]2)cc1 [TQS-168, 2-(4-tert-butylphenyl)-1H-benzimidazole]
776

---

assay: Tissue concentrations (plasma, brain, liver) after single oral dose 25 mg/kg in mice; assay type: in vivo; details: male, C57BL6/J, mouse, liver, po, 25 mg/kg, 25 mg/kg p.o., 240.0 minutes, average, read-out: concentration in liver
parameter.measured: concentration at 240 min (µg/mL)
Enter your answer as a number in µg/mL; do not include the unit.

In one line, give reported concentration at 240 min of the entry CC(C)(C)c1ccc(-c2nc3ccccc3[nH]2)cc1 .
0.619

---

experiment: Plasma and brain concentrations after single oral dose 45 mg/kg in mice; type: in vivo; conditions: mouse, po; mice plasma, TQS-168 45 mg/kg p.o., solution PEG 400/Kleptose/water
parameter.measured: Cmax (ng/mL)
Answer in ng/mL, number only, no unit symbol.

CC(C)(C)c1ccc(-c2nc3cc(O)ccc3[nH]2)cc1: 692

Supply measured Cmax of CC(C)(C)c1ccc(-c2nc3ccccc3[nH]2)cc1 in your reply.
2310

---

experiment: Phase 1 single ascending dose (SAD) trial, plasma pharmacokinetics (Part 1); settings: male, human, in vivo, po, 90 mg, Cmax, human plasma; Regimen F: 90 mg TQS-168 SDD oral suspension, fed, single dose
parameter.measured: Cmax (nM)
Please respond with the number in nM and leave the unit unwritten.

# return recorded Cmax for entry CC(C)(C)c1ccc(-c2nc3ccccc3[nH]2)cc1 [TQS-168, 2-(4-tert-butylphenyl)-1H-benzimidazole]
190

---

Experiment: Tissue concentrations (plasma, brain, liver) after single oral dose 25 mg/kg in mice
Format: in vivo
Details: male, C57BL6/J, mouse, liver, po, 25 mg/kg, 25 mg/kg p.o., 0.0 minutes, average, read-out: concentration in liver
Method: In a first experiment, a total of 3-4 male C57BL6/J mice were administered a single dose of TQS-168 by oral gavage at 25 mg/kg. TQS-168 was prepared for oral gavage as a suspension with 0.5% methylcellulose in PBS. Tissues were collected at various time points after dosing and processed for LC-MS analyses of TQS-168 concentrations. The tissues analyzed include plasma, brain, and liver. […]
parameter.measured: concentration at 0 min (ng/mL)
// return numeric value only (unit: ng/mL, not printed)

Provide measured concentration at 0 min value, entry: CC(C)(C)c1ccc(-c2nc3ccccc3[nH]2)cc1
1.2

---

test: Plasma concentrations of TQS-168 and TQS-621 after single oral dose 50 mg/kg in mice, three formulations; format: in vivo; conditions: male, C57BL/6, mouse, plasma, po, 50 mg/kg, mice, 50 mg/kg p.o., Group 2 (solution, PEG 400/Kleptose/water), 12 hr, individual mouse; read-out: Calculated Concentration in plasma
parameter.measured: concentration at 12 h (ng/mL)
Expressed in ng/mL, but write only the number.

Look up concentration at 12 h of CC(C)(C)c1ccc(-c2nc3ccccc3[nH]2)cc1 [TQS-168, 2-(4-tert-butylphenyl)-1H-benzimidazole] and report it.
185

---

assay: Plasma concentrations of TQS-168 and TQS-621 after single oral dose 50 mg/kg in mice, three formulations; assay type: in vivo; conditions: male, C57BL/6, mouse, plasma, po, 50 mg/kg, mice plasma, 50 mg/kg p.o., Group 3 (suspension); read-out: Cmax
parameter.measured: Cmax (nM)
Report the value in nM with no unit label.

Give the reported value of Cmax for this record: CC(C)(C)c1ccc(-c2nc3ccccc3[nH]2)cc1 [TQS-168, 2-(4-tert-butylphenyl)-1H-benzimidazole]
2400

---

Assay: Plasma concentrations of TQS-168 and TQS-621 after single oral dose 50 mg/kg in mice, three formulations
Assay type: in vivo
Details: male, C57BL/6, mouse, plasma, po, 50 mg/kg, mice, 50 mg/kg p.o., Group 1 (suspension, methylcellulose in PBS), 1 hr, individual mouse; read-out: Calculated Concentration in plasma
Experimental: In a second experiment, mice were administered 50 mg/kg TQS-168 by oral gavage. For Group 1, TQS-168 was prepared at a concentration of 5.0 mg/mL in a suspension with […] in PBS. For Group 2, TQS-168 was prepared at a concentration of 5.0 mg/mL as a solution in 10 polyethylene glycol (PEG) 400|30 Kleptose (Roquete)|60% water. […] Plasma concentrations of TQS-168 and TQS-621 were measured overtime.
parameter.measured: concentration at 1 h (ng/mL)
Field format: number, assumed ng/mL, no unit text.

Respond only with concentration at 1 h recorded for CC(C)(C)c1ccc(-c2nc3ccccc3[nH]2)cc1 [TQS-168, 2-(4-tert-butylphenyl)-1H-benzimidazole]
1280
